target: Histone deacetylase 2 (Homo sapiens); test: Inhibition of human recombinant HDAC2 using Fluor de Lys Green as substrate incubated for 30 mins by fluorescence assay
Sequence (Q92769 whole entry): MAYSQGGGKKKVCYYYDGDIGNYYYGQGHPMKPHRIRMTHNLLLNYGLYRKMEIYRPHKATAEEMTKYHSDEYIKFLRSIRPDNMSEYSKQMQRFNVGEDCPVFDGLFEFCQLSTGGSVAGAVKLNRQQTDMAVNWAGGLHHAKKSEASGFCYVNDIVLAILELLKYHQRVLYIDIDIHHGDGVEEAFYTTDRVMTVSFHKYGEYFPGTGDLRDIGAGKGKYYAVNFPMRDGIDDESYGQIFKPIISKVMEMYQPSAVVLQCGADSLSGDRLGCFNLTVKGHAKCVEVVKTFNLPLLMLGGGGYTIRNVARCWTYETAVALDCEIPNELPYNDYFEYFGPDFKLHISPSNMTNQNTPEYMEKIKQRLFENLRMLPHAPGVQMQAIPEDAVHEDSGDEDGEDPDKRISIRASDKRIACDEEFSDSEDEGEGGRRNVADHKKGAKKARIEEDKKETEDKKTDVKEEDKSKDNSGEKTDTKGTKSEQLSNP
result type: IC50 (µM)
Return type: number; implicit unit µM.

// returns reported IC50 for input CC(C)=C(c1ccccc1)c1ccc(/C=C/C(=O)NO)cc1
11.8

----------
experiment: Antiproliferative activity against human LoVo/DX cells assessed as reduction in cell number after 72 hrs by cell counter analysis; assay type: functional, cell-based
result type: pIC50
Convention used: pIC50 is expressed as -log10 of the molar concentration.

Report pIC50 for Cc1[nH]c2ccccc2c1/C=C/c1ccccc1-c1ccc(/C=C/C(=O)NO)cc1 please.
5.34
